# System: UniProt Q00960
# Assay comment: NR2B rat cortical neuron calcium influx assay
# Condition context: rat cortical neurons, glutamate and glycine stimulated calcium influx
Test readout: pIC50
Quick note: pIC50 means taking -log10 of the concentration in moles per liter.

Guide cases for pIC50, answers given:
Molecule | System | pIC50
O=C1Nc2cc(F)c([C@H](O)CN3C[C@H]4C[C@H](Oc5ccccc5)C[C@@]4(O)C3)cc2CO1 (single isomer, unassigned) [Example 36B] | UniProt Q00960 | 8.82
O=C1Nc2ccc([C@@H](O)CN3C[C@H]4C[C@H](Oc5ccccc5F)C[C@@]4(O)C3)cc2CS1 (single isomer, unassigned) [Example 15A] | UniProt Q00960 | 11.82

Next up:
Task: Data request, read-out pIC50, for O=C1CCc2cc([C@H](O)CN3C[C@H]4C[C@H](Oc5ccccc5F)C[C@@]4(O)C3)ccc2N1 [Example 5B]
Result: 6.89

====

# System: hERG (Homo sapiens (Human))
# Sequence (Q12809 whole entry): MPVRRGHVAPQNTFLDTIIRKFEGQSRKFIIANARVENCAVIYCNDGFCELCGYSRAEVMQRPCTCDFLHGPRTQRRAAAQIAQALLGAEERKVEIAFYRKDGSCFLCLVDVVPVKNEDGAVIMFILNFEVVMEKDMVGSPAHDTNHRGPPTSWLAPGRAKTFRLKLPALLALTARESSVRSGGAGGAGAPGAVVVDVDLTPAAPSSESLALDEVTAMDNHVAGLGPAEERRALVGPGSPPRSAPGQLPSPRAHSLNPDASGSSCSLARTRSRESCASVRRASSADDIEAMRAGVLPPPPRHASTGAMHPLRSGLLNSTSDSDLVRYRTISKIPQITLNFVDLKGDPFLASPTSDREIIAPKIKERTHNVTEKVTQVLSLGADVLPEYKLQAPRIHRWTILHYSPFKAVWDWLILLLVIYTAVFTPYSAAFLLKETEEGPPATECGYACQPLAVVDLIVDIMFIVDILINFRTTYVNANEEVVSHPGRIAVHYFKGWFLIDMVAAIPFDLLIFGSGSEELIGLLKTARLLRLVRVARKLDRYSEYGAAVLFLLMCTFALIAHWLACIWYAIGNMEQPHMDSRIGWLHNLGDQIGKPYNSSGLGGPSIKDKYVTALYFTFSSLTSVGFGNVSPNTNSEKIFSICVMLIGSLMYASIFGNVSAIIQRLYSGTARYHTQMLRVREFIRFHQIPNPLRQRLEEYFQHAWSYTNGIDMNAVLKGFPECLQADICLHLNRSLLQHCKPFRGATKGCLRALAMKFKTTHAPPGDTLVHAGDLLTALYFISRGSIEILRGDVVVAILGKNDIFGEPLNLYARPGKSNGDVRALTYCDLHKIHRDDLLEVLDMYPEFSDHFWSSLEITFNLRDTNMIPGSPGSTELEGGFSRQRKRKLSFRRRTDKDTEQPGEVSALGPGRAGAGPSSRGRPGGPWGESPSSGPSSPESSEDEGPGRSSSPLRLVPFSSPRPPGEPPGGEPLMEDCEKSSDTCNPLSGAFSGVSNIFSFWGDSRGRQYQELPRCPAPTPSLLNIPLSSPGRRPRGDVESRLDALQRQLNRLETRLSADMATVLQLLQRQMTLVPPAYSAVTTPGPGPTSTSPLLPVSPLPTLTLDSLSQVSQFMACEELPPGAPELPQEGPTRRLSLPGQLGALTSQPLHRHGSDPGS
# Assay comment: hERG Qpatch assay
# Format: cell-based
# Condition context: Table 2, hERG expressing CHO-K1 cells
Test readout: pIC50
Quick note: pIC50 means taking -log10 of the concentration in moles per liter.

Compound | Reported result
O=C1CCc2cc(C(O)CN3CC4CC(Oc5ccccc5F)CC4(O)C3)ccc2N1 (stereo in doubt) | 5.22

Task: State its pIC50 on hERG (Homo sapiens (Human)): O=C1CCc2cc([C@H](O)CN3C[C@H]4C[C@H](Oc5ccccc5F)[C@H](O)[C@@]4(O)C3)cc(F)c2N1 (single isomer, unassigned) [Example 29B]
Result: 4.90

Task: State its pIC50 on hERG (Homo sapiens (Human)): O=C1CCc2cc([C@@H](O)CN3C[C@H]4C[C@H](Oc5ccccc5)C[C@@]4(O)C3)cc(F)c2N1 (single isomer, unassigned) [Example 31A]
Result: 5.14

Task: State its pIC50 on hERG (Homo sapiens (Human)): O=C1CCc2cc([C@H](O)CN3C[C@H]4C[C@H](Oc5ccccc5)C[C@@]4(O)C3)cc(F)c2N1 (single isomer, unassigned) [Example 31B]
Result: 5.41

Task: State its pIC50 on hERG (Homo sapiens (Human)): O=c1[nH]c2c(F)cc([C@H](O)CN3C[C@H]4C[C@H](Oc5ccccc5)C[C@@]4(O)C3)cc2s1 (single isomer, unassigned) [Example 42B]
Result: 6.10

Task: State its pIC50 on hERG (Homo sapiens (Human)): O[C@H](CN1C[C@H]2C[C@H](Oc3ccccc3F)[C@H](O)[C@@]2(O)C1)c1cnc2[nH]ccc2c1 (single isomer, unassigned) [Example 44B]
Result: 4.80

====

# System: NR2B (Rattus norvegicus (Rat), UniProt Q00960)
# Sequence (Q00960 27-1482, other chains not shown): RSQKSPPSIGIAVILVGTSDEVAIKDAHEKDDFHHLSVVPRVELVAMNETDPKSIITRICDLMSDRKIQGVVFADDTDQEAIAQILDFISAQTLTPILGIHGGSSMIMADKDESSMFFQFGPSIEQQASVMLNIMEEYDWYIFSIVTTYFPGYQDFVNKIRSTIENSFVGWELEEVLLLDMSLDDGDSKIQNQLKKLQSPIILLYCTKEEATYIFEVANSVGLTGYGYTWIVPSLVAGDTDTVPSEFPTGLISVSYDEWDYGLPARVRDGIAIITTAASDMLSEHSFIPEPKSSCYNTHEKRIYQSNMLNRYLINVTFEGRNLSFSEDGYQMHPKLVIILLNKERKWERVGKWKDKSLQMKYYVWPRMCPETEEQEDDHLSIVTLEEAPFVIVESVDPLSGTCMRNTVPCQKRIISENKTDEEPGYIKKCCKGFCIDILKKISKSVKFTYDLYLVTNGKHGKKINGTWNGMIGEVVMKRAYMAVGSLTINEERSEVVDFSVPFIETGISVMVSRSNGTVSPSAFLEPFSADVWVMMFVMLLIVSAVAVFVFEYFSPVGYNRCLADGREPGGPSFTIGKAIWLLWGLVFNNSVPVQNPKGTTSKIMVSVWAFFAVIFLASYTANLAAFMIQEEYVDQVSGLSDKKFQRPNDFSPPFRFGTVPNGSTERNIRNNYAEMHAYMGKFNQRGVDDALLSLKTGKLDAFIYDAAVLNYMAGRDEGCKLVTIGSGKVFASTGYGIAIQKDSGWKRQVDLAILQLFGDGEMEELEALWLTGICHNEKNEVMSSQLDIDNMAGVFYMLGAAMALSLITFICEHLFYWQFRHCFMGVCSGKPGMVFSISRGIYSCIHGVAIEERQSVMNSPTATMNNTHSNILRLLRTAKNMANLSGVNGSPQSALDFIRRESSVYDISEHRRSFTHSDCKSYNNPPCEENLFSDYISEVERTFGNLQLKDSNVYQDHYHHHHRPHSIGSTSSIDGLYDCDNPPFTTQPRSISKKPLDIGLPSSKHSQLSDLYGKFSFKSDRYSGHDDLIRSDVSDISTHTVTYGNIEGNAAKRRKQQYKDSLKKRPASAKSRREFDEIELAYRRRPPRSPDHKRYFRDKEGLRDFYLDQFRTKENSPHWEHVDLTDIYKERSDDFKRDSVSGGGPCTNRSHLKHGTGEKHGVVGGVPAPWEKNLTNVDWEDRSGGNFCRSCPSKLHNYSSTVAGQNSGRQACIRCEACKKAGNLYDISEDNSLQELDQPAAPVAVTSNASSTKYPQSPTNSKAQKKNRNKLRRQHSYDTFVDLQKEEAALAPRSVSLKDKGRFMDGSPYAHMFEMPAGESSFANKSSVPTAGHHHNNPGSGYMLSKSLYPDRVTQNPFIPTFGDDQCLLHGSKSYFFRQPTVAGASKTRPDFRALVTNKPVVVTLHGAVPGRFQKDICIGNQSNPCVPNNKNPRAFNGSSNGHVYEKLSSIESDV
# Assay comment: NR2B rat cortical neuron calcium influx assay
# Condition context: rat cortical neurons, glutamate and glycine stimulated calcium influx
Test readout: pIC50
Quick note: pIC50 means taking -log10 of the concentration in moles per liter.

Guide cases for pIC50, answers given:
Compound | Reported result
O=c1[nH]c2ccc([C@H](O)CN3C[C@H]4C[C@H](Oc5ccccc5)C[C@@]4(O)C3)cc2s1 (single isomer, unassigned) [Example 17B] | 10.31
O=C1CCc2cc([C@H](O)CN3C[C@@H]4C[C@@H](Oc5ccccc5F)C[C@]4(O)C3)cc(F)c2N1 (single isomer, unassigned) | 8.62
O=C1Cc2cc([C@@H](O)CN3C[C@H]4C[C@H](Oc5ccccc5)C[C@@]4(O)C3)ccc2N1 (single isomer, unassigned) | 7.00
O=C1Nc2ccc([C@@H](O)CN3C[C@H]4C[C@H](Oc5ccccc5)C[C@@]4(O)C3)cc2CO1 (single isomer, unassigned) [Example 28A] | 9.08

Task: State its pIC50 on NR2B (Rattus norvegicus (Rat), UniProt Q00960): `O=C1CCc2cc([C@@H](O)CN3C[C@H]4C[C@H](Oc5ccccc5)C[C@@]4(O)C3)ccc2N1`
Result: 9.22

Task: State its pIC50 on NR2B (Rattus norvegicus (Rat), UniProt Q00960): O=C1CCc2cc([C@@H](O)CN3C[C@@H]4C[C@@H](Oc5ccc(F)cc5F)C[C@]4(O)C3)ccc2N1 (single isomer, unassigned) [Example 25C]
Result: 9.62

Task: State its pIC50 on NR2B (Rattus norvegicus (Rat), UniProt Q00960): O[C@H](CN1C[C@H]2C[C@H](Oc3ccccc3F)[C@H](O)[C@@]2(O)C1)c1cnc2[nH]ccc2c1 (single isomer, unassigned) [Example 44B]
Result: 5.92

Task: State its pIC50 on NR2B (Rattus norvegicus (Rat), UniProt Q00960): O=C1CCc2cc([C@H](O)CN3C[C@@H]4C[C@@H](Oc5ccc(F)cc5F)C[C@]4(O)C3)ccc2N1 (single isomer, unassigned) [Example 25D]
Result: 9.66

Task: State its pIC50 on NR2B (Rattus norvegicus (Rat), UniProt Q00960): O=C1CCc2cc([C@H](O)CN3C[C@@H]4C[C@@H](Oc5c(F)cccc5F)C[C@]4(O)C3)ccc2N1 (single isomer, unassigned) [Example 27D]
Result: 8.85

Task: State its pIC50 on NR2B (Rattus norvegicus (Rat), UniProt Q00960): O=C1Nc2c(F)cc([C@H](O)CN3C[C@H]4C[C@H](Oc5ccccc5)C[C@@]4(O)C3)cc2CO1 (single isomer, unassigned) [Example 33B]
Result: 8.44

Task: State its pIC50 on NR2B (Rattus norvegicus (Rat), UniProt Q00960): O=C1CCc2cc([C@@H](O)CN3C[C@H]4C[C@H](Oc5ccccc5F)C[C@@]4(O)C3)cc(F)c2N1 (single isomer, unassigned)
Result: 6.28

Task: State its pIC50 on NR2B (Rattus norvegicus (Rat), UniProt Q00960): O=C1Nc2ccc([C@H](O)CN3C[C@H]4C[C@H](Oc5ccccc5)C[C@@]4(O)C3)c(F)c2CO1 (single isomer, unassigned) [Example 34B]
Result: 8.96

Task: State its pIC50 on NR2B (Rattus norvegicus (Rat), UniProt Q00960): O[C@@H](CN1C[C@H]2C[C@H](Oc3ccccc3F)[C@H](O)[C@@]2(O)C1)c1cnc2[nH]ccc2c1 (single isomer, unassigned) [Example 44A]
Result: 6.77

Task: State its pIC50 on NR2B (Rattus norvegicus (Rat), UniProt Q00960): O=C1CCc2cc([C@@H](O)CN3C[C@H]4C[C@H](Oc5cc(F)ccc5F)C[C@@]4(O)C3)ccc2N1 (single isomer, unassigned) [Example 26A]
Result: 6.60

Task: State its pIC50 on NR2B (Rattus norvegicus (Rat), UniProt Q00960): O=c1[nH]c2ccc([C@@H](O)CN3C[C@H]4C[C@H](Oc5ccccc5F)C[C@@]4(O)C3)cc2o1 (single isomer, unassigned) [Example 40A]
Result: 8.16

Task: State its pIC50 on NR2B (Rattus norvegicus (Rat), UniProt Q00960): O=C1Nc2ccc([C@H](O)CN3C[C@H]4C[C@H](Oc5ccccc5F)C[C@@]4(O)C3)cc2CCO1 (single isomer, unassigned) [Example 12B]
Result: 9.60

Task: State its pIC50 on NR2B (Rattus norvegicus (Rat), UniProt Q00960): `O=C1CCc2cc([C@H](O)CN3C[C@@H]4C[C@@H](Oc5ccccc5)[C@@H](O)[C@]4(O)C3)ccc2N1`
Result: 6.60

Task: State its pIC50 on NR2B (Rattus norvegicus (Rat), UniProt Q00960): O=C1CCc2cc([C@@H](O)CN3C[C@H]4C[C@H](Oc5ccccc5)C[C@@]4(O)C3)c(F)cc2N1 (single isomer, unassigned) [Example 10A]
Result: 9.39

Task: State its pIC50 on NR2B (Rattus norvegicus (Rat), UniProt Q00960): `O=C1Cc2cc([C@@H](O)CN3C[C@H]4C[C@H](Oc5ccccc5)[C@H](O)[C@@]4(O)C3)ccc2N1`
Result: 6.40

Task: State its pIC50 on NR2B (Rattus norvegicus (Rat), UniProt Q00960): O=C1Nc2c(F)cc([C@@H](O)CN3C[C@H]4C[C@H](Oc5ccccc5)C[C@@]4(O)C3)c(F)c2CO1 (single isomer, unassigned) [Example 37A]
Result: 7.48

Task: State its pIC50 on NR2B (Rattus norvegicus (Rat), UniProt Q00960): O=C1CCc2cc([C@H](O)CN3C[C@@H]4C[C@@H](Oc5cccc(F)c5)C[C@]4(O)C3)ccc2N1 (single isomer, unassigned) [Example 23D]
Result: 8.89

Task: State its pIC50 on NR2B (Rattus norvegicus (Rat), UniProt Q00960): O=C1CCc2cc([C@@H](O)CN3C[C@H]4C[C@H](Oc5cccc(F)c5F)C[C@@]4(O)C3)ccc2N1 (single isomer, unassigned) [Example 24A]
Result: 7.80

Task: State its pIC50 on NR2B (Rattus norvegicus (Rat), UniProt Q00960): O=C1CCCc2cc([C@@H](O)CN3C[C@H]4C[C@H](Oc5ccccc5F)C[C@@]4(O)C3)ccc2N1 (single isomer, unassigned) [Example 43A]
Result: 10.47
